# credit: PubChem BioAssay AID1619

biological target: Leucine aminopeptidase (Plasmodium falciparum (isolate 3D7)) (UniProt Q8IL11); assay: P. falciparum M17LAP inhibitors, primary screen, biochemical, fluorogenic H-Leu-NHMec substrate, 1536-well (AID 1619); details: recombinant M17LAP, H-Leu-NHMec fluorogenic kinetic assay; at 30 µM; hits give high values;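 note: plate controls were full reaction with DMSO carrier for no effect and no enzyme background for full effect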
Sequence (Q8IL11 whole entry, looked up): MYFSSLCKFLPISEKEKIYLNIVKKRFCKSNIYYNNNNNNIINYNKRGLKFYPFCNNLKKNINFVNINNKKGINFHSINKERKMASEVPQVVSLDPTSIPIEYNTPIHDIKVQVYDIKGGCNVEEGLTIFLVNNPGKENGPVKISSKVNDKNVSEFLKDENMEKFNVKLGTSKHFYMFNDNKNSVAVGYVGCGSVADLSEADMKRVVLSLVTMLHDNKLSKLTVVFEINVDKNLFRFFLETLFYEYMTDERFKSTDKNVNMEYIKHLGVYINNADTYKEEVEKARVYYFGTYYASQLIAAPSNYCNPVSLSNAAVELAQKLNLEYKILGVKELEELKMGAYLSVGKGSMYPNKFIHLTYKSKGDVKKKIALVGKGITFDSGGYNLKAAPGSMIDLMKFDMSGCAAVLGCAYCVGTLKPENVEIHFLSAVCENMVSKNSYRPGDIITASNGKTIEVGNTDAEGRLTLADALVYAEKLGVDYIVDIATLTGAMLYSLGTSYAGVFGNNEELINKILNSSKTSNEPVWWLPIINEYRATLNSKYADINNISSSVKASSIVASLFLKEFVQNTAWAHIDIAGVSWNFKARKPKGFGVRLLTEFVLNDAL
The whole screen tested about 220,000 compounds, of which about 830 (0.38%) were called active. These entries were drawn from the full list. Entries with a potency or affinity are not part of this list.
Reported Metric: inhibition (%)

1. C/C(CC(=O)Nc1cc(C)ccn1)=N\NC(=O)C(=O)Nc1cccc(C)c1    17.6
2. C/C(=C\C(=O)c1ccc(Br)cc1)Nc1ccc(Cl)cc1    -7.69
3. Cc1cc(C)c(/C=C(\C#N)S(=O)(=O)c2ccccc2)[nH]1    -7.74
4. O=C1/C(=C/c2ccc([N+](=O)[O-])cc2)C=C(c2ccccc2)N1c1ccccc1    1.75
5. O=C(N/N=C/c1cccs1)c1cccc2cc[nH]c12    8.58
6. O=C(Cc1ccc(-c2ccccc2)cc1)NCc1ccccc1    -2.44
